Listed below: pEC50 values for each entry.
System: TLR2 induced IL-6 in peripheral blood mononuclear cells (PBMCs)
METHOD: PBMC TLR2 Induced IL-6 Assay
Assay type: cell-based
CONDITION DESCRIPTION: Homo sapiens, PBMC, 5 h, 10 μg/ml lipoteichoic acid for 5 hours, IL-6 by ELISA, values marked * are EC50, read-out: Cell EC50 (values marked *)
pEC50: −log10 of the molar value.

{"columns": ["COMPOUND", "pEC50"],
 "data": [
  ["CC(C)(O)[C@H](F)CNC(=O)c1cnc(Nc2ncc(C#N)c(N)n2)cc1NC1CC1", 6.28],
  ["CC(C)(F)CNc1cc(Nc2ncc(C#N)cc2Cl)ncc1C(=O)NC[C@@H](F)C(C)(C)O", 6.69],
  ["CC(=O)N[C@H]1CC[C@H](NC(=O)c2cnc(Nc3ncncc3Cl)cc2NC(C)C)CC1", 6.36],
  ["CC(Nc1cc(Nc2ncc(C#N)cn2)ncc1C(=O)NC[C@@H](F)C(C)(C)O)C1CC1 (some centres unmarked)", 6.34],
  ["CC(C)(O)[C@H](F)CNC(=O)c1cnc(Nc2ncc(C#N)cc2F)cc1NC1CCC(F)C1 (some centres unmarked)", 7.25],
  ["CC(C)(O)c1cnc(Nc2cc(Nc3ncc(C#N)cc3Cl)ncc2C(=O)NC[C@@H](F)C(C)(C)O)s1", 7.27],
  ["CC(C)Nc1cc(Nc2ccc(C#N)cn2)ncc1C(=O)NC1CCC(O)(c2ccnn2C)CC1 (centres unmarked)", 6.77],
  ["CC(C)Nc1cc(Nc2ncc(C#N)cc2F)ncc1C(=O)NCCCOC(C)(C)C", 6.60]
]}

---

System: TLR2 induced IL-6 in peripheral blood mononuclear cells (PBMCs)
METHOD: PBMC TLR2 Induced IL-6 Assay
Assay type: cell-based
CONDITION DESCRIPTION: Homo sapiens, PBMC, 5 h, 10 μg/ml lipoteichoic acid for 5 hours, IL-6 by ELISA, values marked * are EC50, read-out: Cell EC50 (values marked *)
Protocol: PBMC TLR2 Induced IL-6 Assay Peripheral blood mononuclear cells (PBMCs) were isolated from human blood containing the anti-coagulant EDTA (2.5 mM) by centrifugation over a FICOLL® gradient. […] At the end of the culture, plates were centrifuged at 1800 rpm for 10 minutes to pellet the cells. Supernatants were harvested and analyzed for IL-6 levels by ELISA (BD Biosciences, San Jose, Calif.).
Labelling: EC50 reported below 200 nM becomes label 1; at or above becomes label 0.

{"columns": ["SAMPLE SMILES", "CLASS ASSIGNMENT"],
 "data": [
  ["CC(C)(O)[C@H](F)CNC(=O)c1cnc(Nc2ncncc2F)cc1NC1CC1", "label 0"],
  ["CC(C)(O)[C@H](F)CNC(=O)c1cnc(Nc2ncc(C#N)cc2F)cc1Nc1cccc(S(N)(=O)=O)c1", "label 0"],
  ["CC(C)(O)C(F)(F)CNC(=O)c1cnc(Nc2ncc(C#N)cc2Cl)cc1NC1CC1", "label 1"],
  ["CC(C)Nc1cc(Nc2ncc(F)cc2F)ncc1C(=O)NC[C@@H](F)C(C)(C)O", "label 0"],
  ["COc1cnc(Nc2cc(NC3CCC3)c(C(=O)NC[C@@H](F)C(C)(C)O)cn2)nc1", "label 1"],
  ["Cn1nnnc1-c1ccc(Nc2cc(Nc3ncc(C#N)cc3Cl)ncc2C(=O)NC[C@@H](F)C(C)(C)O)cc1", "label 1"]
]}

Origin of measurements: patent US10023562B2
